# MEASUREMENT_DESCRIPTION: soluble on expression in E. coli; label from the status in PepcDB or PDB records
ENDPOINT: soluble on expression in E. coli

1) MGSDKIHHHHHHMKAFDRDASEPRIGLAYGPGMAEFAARNAHLVDYIEVPFEQLRFSPAVAELQQTIPFVLHCASLSVAGFVPPDDSTVDAIERTAVQTGTPWIGEHLAYISADPVGEALGGTGEPTSLSYTLCPQLSDETVRRVVDNLAALRPHFPVPLIVENSPQYFPIPGSTMGMTDFIRAITDRCDVGLLLDLSHFLITAHNTGAEVHRELARLPLERVVEVHLSGMSVQSGTAWDDHSLPASPILFELLERLLDVARPRALTFEYNWSPYFPLSVLTTHIERARQLMGLA ... not soluble
2) MNENWNWSLVDKVVYINLKERTDRNEHIKKELEKVCFPPEKIIRFEAIRAGSGFIGCAKSHLAVLKMAQENNWRNILILEDDMVFEDDDETIIRTNNFLSKLNNIHWDAAFLSASYYIVNAIDDNFFKVNFAYLANSYLVNNHYYEKLINNYTESVQRLTNGESSSEYGLDSNWLKIMKIDNWYGIYPVIGYQRTDISDIEYKEIDRTHQFTRTFDKMKAYGSK ... soluble
3) GPGSMAGVLHETATTVSYRGALCKLAGVELQGINLSPPQRLCQLELLISREINWLAAVLEEWEEKYMLFTCVPYRGVVDAFTTLLRTIKRHLETENSSKDNEKEWDALLASSITEFQVEVMEIGKGKSY ... soluble
4) MGSDKIHHHHHHMTIQKHFPTVEMADIHFELIGGLSSQSWRIRGPGIEWLARRQSPVERKMGVDRQREFALLRQMSAVGLAPRPLLWRDGWLIVEWVPGRIATSDEFLMMLANGEVARVLSQLHRQPRSGHPLNFKILFAQHWQLMDPCRRSPALLRAHHHFQRAALPTPLALVPLHLDVHAENLLITPQGTMLIDWEYASDGDIAFELAFIVRASQMDSVAQTYFLQSYQRHRRGFSVSRLQQQMMQWFPWVDYLVLMWFEVRWQQTKNLEFLAEIPALRHRLQLG ... not soluble
5) EFKDVFIEKQKGEILGVVIVESGWGSILPTVIIANMMHGGPAEKSGKLNIGDQIMSINGTSLVGLPLSTCQSIIKGLKNQSRVKLNIVRCPPVTTVLIRRPDLRYQLGFSVQNGIICSLMRGGIAERGGVRVGHRIIEINGQSVVATPHEKIVHILSNAVGEIHMKTMPAAMYRLLTAQEQPVYI ... soluble

Below: the item to evaluate.
Q: Specify measured soluble on expression in E. coli for MSLSRQIRYYGTGTEKVEEELQDLLPDANIIRMDNDTTRKKGAHAKLLAQFGSGEADILIGTQMIAKGLDFPNVTLVGVLNADTALGLPDFRASERTFQLLTQVSGRAGRAEKSGHVYIQTFNPDHYAIRFAQHHDYEGFFKYEMQMRHRGGYPPYYFTVQITASDLDEGVAAKRMYQLLQWLRPRLAPSTILLGPTPKPIARVNRRYYYQIVIKYKQEPNLAQTLTTLLHETQAQQRQGLQIGIDVEPLHFMEGHHHHHH .
A: not soluble
